Measured values drawn from paper PMC5540273 for this set.

# Test system: NEK2;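 also: KINOMEscan kinase panel screen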
# Setup conditions: concentration: 1 μM, replicates: in singlicate; n = 1
Assignment: determine reported %Inh for the given molecules.
Answers are plain numbers, in %.

Use the examples below as a reference point.
[
  {
    "Molecule": "Cl.Cl.NCC(C(=O)Nc1cc(Br)c(-c2ccnc3[nH]ccc23)s1)c1ccccc1 (stereo not shown)",
    "Measure unit": "%",
    "%Inh": 15
  },
  {
    "Molecule": "Cc1ccc(C(=O)Nc2ccc(Nc3ccnc4cc(-c5nccs5)ccc34)cc2O)cc1.Cl",
    "Measure unit": "%",
    "%Inh": 0
  }
]

For each listed entry, give its %Inh.
1. CN(C)Cc1ccc(-c2ccc3c(Nc4ccc(Oc5ccccn5)cc4)ccnc3c2)o1
2. Cl.NC(=O)c1cccc(Nc2nccc(Nc3ccc(Oc4c(Cl)cccc4Cl)c(Cl)c3)n2)c1

Found:
[0, 1]
